# reported Cmax; entries follow
experiment: Maximum concentration in rat plasma was determined; assay type: ADME, organism-based
State just the number; it will be interpreted in µg/mL.

# example entries with known answers
Ask: Endpoint output: Cmax of "CN1CCC(c2c[nH]c3ccc(-n4cnnc4)cc23)CC1" . Value?
Result: 0.053

Ask: Also need "CNS(=O)(=O)Cc1ccc2[nH]cc(CCN(C)C)c2c1" , thanks.
Result: 0.074

Ask: Also need "CN(C)CCc1c[nH]c2ccc(Cn3cncn3)cc12" , thanks.
Result: 0.271

Next molecule, Cmax to be filled in.
Ask: Endpoint output: Cmax of "CN(C)CCc1c[nH]c2ccc(-n3cnnc3)cc12" . Value?
Result: 0.083

---

species on record: Rattus norvegicus; assay: Maximum fall in carotid flow in rat; assay type: organism-based; settings: in vivo
Quantity: Carotid Flow Decrease (%)
State just the number; it will be interpreted in %.

# example entries with known answers
Ask: Endpoint output: Carotid Flow Decrease of "CN(C)CCc1c[nH]c2ccc(-n3cnnc3)cc12" . Value?
Result: 27

Ask: Also need "CN(C)CCc1c[nH]c2ccc(Cn3cncn3)cc12" , thanks.
Result: 76

Ask: Also need "CNS(=O)(=O)Cc1ccc2[nH]cc(CCN(C)C)c2c1" , thanks.
Result: 44

Next molecule, Carotid Flow Decrease to be filled in.
Ask: Endpoint output: Carotid Flow Decrease of "CN1CCC(c2c[nH]c3ccc(-n4cnnc4)cc23)CC1" . Value?
Result: 20

---

test: Plasma clearance in rat was determined; assay type: ADME, organism-based; details: read-out: Clp
Quantity: clearance (mL/min/kg)
State just the number; it will be interpreted in mL/min/kg.

Ask: Endpoint output: clearance of "CN(C)CCc1c[nH]c2ccc(Cn3cncn3)cc12" . Value?
Result: 79

Ask: Also need "CNS(=O)(=O)Cc1ccc2[nH]cc(CCN(C)C)c2c1" , thanks.
Result: 69

Ask: Also need "CN1CCC(c2c[nH]c3ccc(-n4cnnc4)cc23)CC1" , thanks.
Result: 48

Ask: Also need "CN(C)CCc1c[nH]c2ccc(-n3cnnc3)cc12" , thanks.
Result: 37

---

assay: Half-life in rat plasma was determined; format: ADME, organism-based
# reported half-life; entries follow
State just the number; it will be interpreted in h.

# example entries with known answers
Ask: Endpoint output: half-life of "CN1CCC(c2c[nH]c3ccc(-n4cnnc4)cc23)CC1" . Value?
Result: 2

Ask: Also need CN(C)CCc1c[nH]c2ccc(Cn3cncn3)cc12 [RIZATRIPTAN] , thanks.
Result: 0.8

Ask: Also need "CN(C)CCc1c[nH]c2ccc(-n3cnnc3)cc12" , thanks.
Result: 1.3

Next compound, half-life to be filled in.
Ask: Endpoint output: half-life of "CNS(=O)(=O)Cc1ccc2[nH]cc(CCN(C)C)c2c1" . Value?
Result: 1.1

---

# reported Tmax; entries follow
assay: Time required to reach maximum concentration in rat plasma; type: ADME, organism-based

# example entries with known answers
Ask: Endpoint output: Tmax of "CN(C)CCc1c[nH]c2ccc(Cn3cncn3)cc12" . Value?
Result: 0.75 h

Ask: Also need "CN(C)CCc1c[nH]c2ccc(-n3cnnc3)cc12" , thanks.
Result: 1 h

Ask: Also need "CN1CCC(c2c[nH]c3ccc(-n4cnnc4)cc23)CC1" , thanks.
Result: 3 h

Continuing:
Ask: Endpoint output: Tmax of "CNS(=O)(=O)Cc1ccc2[nH]cc(CCN(C)C)c2c1" . Value?
Result: 4 h
